Tested system: Bem1-1, P29366
Sequence (P29366 55-141): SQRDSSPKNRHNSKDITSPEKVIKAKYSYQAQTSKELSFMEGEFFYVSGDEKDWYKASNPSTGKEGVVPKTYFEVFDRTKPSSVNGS
Test: SPOT array
Condition description: median of control spots 4282
Each entry below lists one item and its recorded SPOT intensity value.

Binder	SPOT intensity
MFLISPPASPPPEFD	0
PPIPNAPLSPAPAVP	0
RKQRSIPLSPIVPES	0
HAPPLPPTAPPPPSL	0
NPNRRAPRRPLSTQH	3
NRPAIRIPSLKKPAL	1
RHLKLVPSTPMDIPW	189
